- Target under test: Full-length human PRMT1 isoform 1 (Homo sapiens, UniProt Q99873)
- Construct: GST-tagged PRMT1
- Sequence (Q99873 with tags, fused parts or gaps): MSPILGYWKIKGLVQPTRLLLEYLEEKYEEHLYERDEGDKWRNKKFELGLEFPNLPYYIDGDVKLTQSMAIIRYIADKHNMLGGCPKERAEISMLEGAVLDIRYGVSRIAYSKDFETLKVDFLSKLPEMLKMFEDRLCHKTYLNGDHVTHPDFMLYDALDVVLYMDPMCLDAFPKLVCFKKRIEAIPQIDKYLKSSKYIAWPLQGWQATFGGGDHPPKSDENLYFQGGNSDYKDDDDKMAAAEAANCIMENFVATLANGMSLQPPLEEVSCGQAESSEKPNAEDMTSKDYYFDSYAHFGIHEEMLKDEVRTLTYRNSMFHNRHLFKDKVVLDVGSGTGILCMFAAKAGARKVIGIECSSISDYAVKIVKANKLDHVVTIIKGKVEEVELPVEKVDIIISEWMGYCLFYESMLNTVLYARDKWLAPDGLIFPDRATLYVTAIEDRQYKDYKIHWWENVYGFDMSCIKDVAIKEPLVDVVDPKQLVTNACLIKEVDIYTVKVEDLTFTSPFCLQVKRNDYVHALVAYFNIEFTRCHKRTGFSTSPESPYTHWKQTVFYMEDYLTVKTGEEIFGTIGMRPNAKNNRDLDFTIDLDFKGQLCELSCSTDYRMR
- Measurement description: PRMT1 biochemical assay (3H-SAM Flashplate, peptide substrate)
pIC50: −log10 of the molar value.
Readout: pIC50

The reported value for CNCCN(C)Cc1n[nH]cc1-c1ccc(Oc2cccc(C#N)c2)cc1 [Compound 267] in terms of pIC50 is > 7.00

Notebook: CC(C)Cc1cc(-c2n[nH]cc2CN(C)CCN)ccc1F [Compound 280] , pIC50 read as > 7.00

Sample CCN(C)C(=O)c1ccc(-c2n[nH]cc2CN(C)CCN)cc1 [Compound 163] ; pIC50 observed: 6.00 to 7.00

Looking up CNCCN(C)Cc1c[nH]nc1-c1ccc(Oc2ccccc2F)cc1 [Compound 237] , I see its pIC50 listed as > 7.00

Reported pIC50 of CNCCN(C)Cc1c[nH]nc1-c1c(OC)cccc1OC [Compound 56] : 5.00 to 5.52

For record CN(CCN)Cc1c[nH]nc1-c1ccc(OC(F)(F)F)cc1 [Compound 93] the listed pIC50 is > 7.00

====

Exercise: for every item that follows, state its recorded IC50.

Readout IC50 for `CCNC(=O)c1cccc(-c2n[nH]cc2CN(C)CCNC)c1` , test system Human CARM1 (PRMT4) (Homo sapiens), was 3.01 to 10 µM

Observed IC50, Human CARM1 (PRMT4) (Homo sapiens), `CN(CCN)Cc1c[nH]nc1-c1cccc(C#N)c1` : 3.01 to 10 µM

IC50 on Human CARM1 (PRMT4) (Homo sapiens) for `CNCCN(C)Cc1c[nH]nc1-c1ccc(-c2ccccc2)cc1` is < 0.1 µM

// returns IC50 for CN(CCN)Cc1cn(CC(O)CO)nc1-c1ccc(F)cc1 (stereo not drawn) with Human CARM1 (PRMT4) (Homo sapiens); value = > 10 µM

Query `CCn1cc(CN(C)CCNC)c(-c2ccc(F)cc2)n1` on Human CARM1 (PRMT4) (Homo sapiens); IC50 returned: 3.01 to 10 µM

The measured IC50 that `CNCCN(C)Cc1c[nH]nc1-c1cccc(OC(F)(F)F)c1` showed for Human CARM1 (PRMT4) (Homo sapiens) is 1.01 to 3 µM

IC50 for Human CARM1 (PRMT4) (Homo sapiens) with input `CNCCN(C)Cc1cnn(C2CC2)c1-c1ccc(F)cc1` equals 0.101 to 1 µM

Summary line: `CNCCN(C)Cc1cn[nH]c1-c1ccc(C#N)cc1` , Human CARM1 (PRMT4) (Homo sapiens), reported IC50 = 1.01 to 3 µM

Test item `CC(C)c1ccc(-c2c[nH]nc2CN(C)CCN)cc1` ; Human CARM1 (PRMT4) (Homo sapiens); reported IC50 was 3.01 to 10 µM

Tested system Human CARM1 (PRMT4) (Homo sapiens); IC50 recorded for `CNCCN(C)Cc1c[nH]nc1-c1ccccc1C(F)(F)F` was > 10 µM

Value sought: IC50, system Human CARM1 (PRMT4) (Homo sapiens), item `CN(CCN)Cc1c[nH]nc1-c1cc(C#N)ccc1Cl` . Result: > 10 µM

# IC50 measured on Human CARM1 (PRMT4) (Homo sapiens) for item `CNCCN(C)Cc1c[nH]nc1-c1ccccc1OC(F)(F)F` = > 10 µM

// IC50 (Human CARM1 (PRMT4) (Homo sapiens)) for `CN(CCN)Cc1n[nH]cc1-c1ccc(F)cc1` = 3.01 to 10 µM

The compound `CNCCN(C)Cc1cn(C)nc1-c1ccc(OC(C)C)cc1` on Human CARM1 (PRMT4) (Homo sapiens): IC50 was 0.101 to 1 µM

Tested on Human CARM1 (PRMT4) (Homo sapiens): `CNCCN(C)Cc1c[nH]nc1-c1ccccc1-c1ccccc1` . Observed IC50: > 10 µM

Record `COc1cccc(-c2n[nH]cc2CN(C)CCN)c1` has Human CARM1 (PRMT4) (Homo sapiens) IC50 equal to 1.01 to 3 µM

The recorded IC50 with Human CARM1 (PRMT4) (Homo sapiens) for `CN(CCN)Cc1n[nH]cc1-c1ccc(Cl)cc1` was 1.01 to 3 µM

Query `CN(CCN)Cc1n[nH]cc1-c1ccc(C2CC2)cc1` on Human CARM1 (PRMT4) (Homo sapiens); IC50 returned: 1.01 to 3 µM

Let me check: `CN(CCN)Cc1cn[nH]c1-c1ccc(F)cc1` , system Human CARM1 (PRMT4) (Homo sapiens), measured IC50 is 1.01 to 3 µM

Kindly note: Human CARM1 (PRMT4) (Homo sapiens), `CNCCN(C)Cc1cn(C(C)C)nc1-c1ccc(F)cc1` , IC50 value reported: 3.01 to 10 µM

IC50 of `COc1ccc(F)cc1-c1n[nH]cc1CN(C)CCN` , assay on Human CARM1 (PRMT4) (Homo sapiens), is > 10 µM

====

Lab note: pIC50 readings collected with Full-length human PRMT3 (Homo sapiens, UniProt O60678) for the following molecules.
Sequence (O60678 with tags, fused parts or gaps): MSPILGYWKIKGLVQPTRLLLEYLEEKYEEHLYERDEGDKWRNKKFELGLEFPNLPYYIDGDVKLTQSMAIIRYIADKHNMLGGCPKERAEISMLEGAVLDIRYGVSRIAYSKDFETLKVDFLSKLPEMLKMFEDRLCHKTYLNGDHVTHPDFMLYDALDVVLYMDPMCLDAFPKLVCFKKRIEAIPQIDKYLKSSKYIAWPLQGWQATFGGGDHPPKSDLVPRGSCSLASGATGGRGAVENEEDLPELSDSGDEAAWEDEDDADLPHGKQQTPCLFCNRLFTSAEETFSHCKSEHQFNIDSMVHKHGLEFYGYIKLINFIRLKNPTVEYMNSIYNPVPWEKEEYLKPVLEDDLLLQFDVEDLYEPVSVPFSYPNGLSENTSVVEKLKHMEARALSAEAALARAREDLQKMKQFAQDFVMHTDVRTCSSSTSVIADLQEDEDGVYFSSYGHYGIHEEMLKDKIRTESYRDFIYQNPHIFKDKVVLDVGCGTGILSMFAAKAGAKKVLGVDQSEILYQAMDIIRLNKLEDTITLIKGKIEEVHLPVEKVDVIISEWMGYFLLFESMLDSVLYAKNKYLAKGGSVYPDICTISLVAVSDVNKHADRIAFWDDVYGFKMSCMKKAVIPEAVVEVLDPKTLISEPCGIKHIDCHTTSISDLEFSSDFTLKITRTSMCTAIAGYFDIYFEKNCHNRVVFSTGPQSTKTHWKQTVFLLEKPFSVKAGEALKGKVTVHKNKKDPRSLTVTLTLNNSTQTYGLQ
pIC50: −log10 of the molar value.

// pIC50 lookup, molecule = `CNCCN(C)Cc1c[nH]nc1-c1c(OC)cccc1OC` , result: < 5.00

Entry `CNCCN(C)Cc1c[nH]nc1-c1ccccc1-c1ccccc1` ; pIC50 = < 5.00

Entry `CN(CCN)Cc1c[nH]nc1-c1ccc(C(F)(F)F)cc1F` — recorded pIC50 = < 5.00

Noted for `Cc1ccc(-c2n[nH]cc2CN(C)CCN)c(C)c1` : its pIC50 reads 5.00 to 5.52

pIC50 recorded for this molecule, `CNCCN(C)Cc1c[nH]nc1-c1ccccc1Oc1ccccc1` , is < 5.00

====

// IC50 collected for Full-length human PRMT3 (Homo sapiens, UniProt O60678)

Reported IC50 ( `Cc1cc(C#N)ccc1-c1n[nH]cc1CN(C)CCN` ) = 3.01 to 10 µM

The recorded IC50 for `CN(CCN)Cc1cn[nH]c1-c1ccc(F)cc1` is 1.01 to 3 µM

Note to self: IC50 recorded for `CNCCN(C)Cc1cn(C2CC2)nc1-c1ccc(F)cc1` was > 10 µM

Query `CN(CCN)Cc1c[nH]nc1-c1ccc(OCCN2CCOCC2)cc1` yields IC50 of 3.01 to 10 µM

The compound listed as `COc1ccc(-c2n[nH]cc2CN(C)CCN)c(OC)c1` shows IC50 equal to > 10 µM

IC50 recorded for this compound, `CC(C)Oc1ccc(-c2n[nH]cc2CN(C)CCN)cc1Cl` , is 3.01 to 10 µM

`CNCCN(C)Cc1cn[nH]c1-c1cc(F)cc(F)c1` has a reported IC50 of 3.01 to 10 µM

IC50 reading for `CN(CCN)Cc1c[nH]nc1-c1ccc(OC(F)F)cc1` : 3.01 to 10 µM

The value of IC50 measured for the compound CC(O)c1ccc(-c2n[nH]cc2CN(C)CCN)cc1 (stereo not drawn) turned out to be 3.01 to 10 µM

====

Exercise: state measured pIC50 for each of the compounds provided.
pIC50: −log10 of the molar value.

The reported pIC50 value, Full-length human PRMT6 (Homo sapiens), for `CN(CCN)Cc1c[nH]nc1-c1ccc(C#N)cc1` reads > 7.00

Summary line: `CNCCN(C)Cc1c[nH]nc1-c1ccc(Oc2cccc(C(=O)N(C)C)c2)cc1` , Full-length human PRMT6 (Homo sapiens), reported pIC50 = > 7.00

Entry `C=CCn1ncc(CN(C)CCNC)c1-c1ccc(OC(C)C)cc1` ; assay system Full-length human PRMT6 (Homo sapiens); pIC50 recorded at > 7.00

Reading of pIC50 for `Cc1ccc(-c2n[nH]cc2CN(C)CCN)cc1Cl` with Full-length human PRMT6 (Homo sapiens): > 7.00

Form field pIC50 for item `NCCN(CCO)Cc1c[nH]nc1-c1ccc(F)cc1` on Full-length human PRMT6 (Homo sapiens): 5.52 to 6.00

Recorded pIC50 for `COc1ccc(-c2n[nH]cc2CN(C)CCN)c(Cl)c1` on Full-length human PRMT6 (Homo sapiens) was > 7.00

Lab entry: Full-length human PRMT6 (Homo sapiens) assay, compound `CNCCN(C)Cc1cn(C2CCCCC2)nc1-c1ccc(OC(C)C)cc1` , pIC50 = 6.00 to 7.00

Measured pIC50 for this entry `CNCCN(C)Cc1c[nH]nc1-c1ccccc1C(F)(F)F` on Full-length human PRMT6 (Homo sapiens): 6.00 to 7.00

Full-length human PRMT6 (Homo sapiens) data for `CNCCN(C)Cc1c[nH]nc1-c1ccc(OC(C)C)c(F)c1` ; its pIC50: > 7.00

The observed pIC50 for `CN(CCN)Cc1c[nH]nc1-c1ccc2c(c1)OCC(=O)N2C` when tested with Full-length human PRMT6 (Homo sapiens) stands at > 7.00

pIC50 of `CNCCN(C)Cc1c[nH]nc1-c1ccccc1OC` , assay on Full-length human PRMT6 (Homo sapiens), is 6.00 to 7.00

Result for `CCN(C)C(=O)c1cccc(-c2n[nH]cc2CN(C)CCN)c1` , tested on Full-length human PRMT6 (Homo sapiens), pIC50: 6.00 to 7.00

Summary: `CC(C)Cc1cc(-c2n[nH]cc2CN(C)CCN)ccc1F` , Full-length human PRMT6 (Homo sapiens), pIC50 = > 7.00

Field pIC50 (Full-length human PRMT6 (Homo sapiens)), entry `CC(C)Oc1ccc(-c2n[nH]cc2CN(C)CCN)cc1F` : > 7.00

Record `COc1ccc(-c2n[nH]cc2CN(C)CCN)c(C(F)(F)F)c1` has Full-length human PRMT6 (Homo sapiens) pIC50 equal to 6.00 to 7.00

The reported pIC50 value, Full-length human PRMT6 (Homo sapiens), for `CNCCN(C)Cc1c[nH]nc1-c1ccccc1Oc1ccccc1` reads 5.52 to 6.00

Record `CN(CCN)Cc1c[nH]nc1-c1ccccc1C#N` / Full-length human PRMT6 (Homo sapiens), pIC50 recorded as 5.52 to 6.00

Form: item `COCCn1ncc(CN(C)CCN(C)C)c1-c1ccc(F)cc1` ; test system Full-length human PRMT6 (Homo sapiens); pIC50: 5.52 to 6.00

Result for `CC(C)Oc1cccc(-c2n[nH]cc2CN(C)CCN)c1` , tested on Full-length human PRMT6 (Homo sapiens), pIC50: > 7.00

Bench note, Full-length human PRMT6 (Homo sapiens): entry `CNCCN(C)Cc1nn(C)cc1-c1ccc(OCCCOC)cc1` , its pIC50 = > 7.00

Log: Full-length human PRMT6 (Homo sapiens), compound `CNCCN(C)Cc1c[nH]nc1-c1ccc(Oc2ccccc2)c(C#N)c1` , pIC50 = > 7.00

Case `CNCCN(C)Cc1c[nH]nc1-c1ccc(CO)cc1` , Full-length human PRMT6 (Homo sapiens), pIC50 recorded as > 7.00

Value sought: pIC50, system Full-length human PRMT6 (Homo sapiens), item CNCCN(C)Cc1cn(CCCC(O)CO)nc1-c1ccc(F)cc1 (stereo not drawn) . Result: 6.00 to 7.00

The value of pIC50 recorded for `CNCCN(C)Cc1c[nH]nc1-c1ccc(OC2CCOCC2)cc1` when tested on Full-length human PRMT6 (Homo sapiens) reads > 7.00

I looked up `CN(CCN)Cc1n[nH]cc1-c1ccc(Cl)cc1` and its pIC50 for Full-length human PRMT6 (Homo sapiens) was > 7.00

Recorded pIC50 for `COc1ccccc1-c1n[nH]cc1CN(C)CCN` on Full-length human PRMT6 (Homo sapiens) was 6.00 to 7.00

The reported pIC50 value, Full-length human PRMT6 (Homo sapiens), for `CNCCN(C)Cc1c[nH]nc1-c1ccc(Oc2cccc(C#N)c2)cc1` reads > 7.00

Per the reported Full-length human PRMT6 (Homo sapiens) data, `CNCCN(C)Cc1cn(CC(=O)OC)nc1-c1ccc(OC(C)C)cc1` has pIC50 of 6.00 to 7.00

Note to self: pIC50 of `CN(CCN)Cc1n[nH]cc1-c1ccc(Oc2ccccc2)cc1` with Full-length human PRMT6 (Homo sapiens) was > 7.00

Item: `CN(CCN)Cc1cn(C)nc1-c1ccc(F)cc1` | System: Full-length human PRMT6 (Homo sapiens) | pIC50: > 7.00

// assay Full-length human PRMT6 (Homo sapiens), entry `CN(CCN)Cc1c[nH]nc1-c1ccc(OCCN2CCOCC2)cc1` , pIC50 value = > 7.00

Known value: Full-length human PRMT6 (Homo sapiens) pIC50 of the compound `CN(CCN)Cc1c[nH]nc1-c1ccc(C(F)(F)F)c(Cl)c1` equals > 7.00

Short answer on Full-length human PRMT6 (Homo sapiens) for `Cc1ccc(C#N)cc1-c1n[nH]cc1CN(C)CCN` , pIC50: 6.00 to 7.00

Each recorded value in this set is attributed to patent US9346761B2.
